Values compiled from patent US9126945B2.

# System: Spodoptera frugiperda
# EXPERIMENT: Spodoptera frugiperda spray test (SPODFR), cotton leaves, ppm
# Assay type: in vivo
# EXPERIMENTAL_CONDITIONS: 168 h, 7 dat
# key: entry, value: inhibition at 20 ppm
State just the number; it will be interpreted in %.

Before answering, review these 3 worked examples.
Cn1nc(C(F)(F)C(F)(F)F)c(C(F)(F)F)c1C(=O)Nc1ccc(Cl)c(C(=O)NC2(C#N)CC2)c1 : 100
Cn1nc(C(F)(F)C(F)(F)F)c(C(F)(F)F)c1C(=O)Nc1ccc(Cl)c(C(=O)NC2CC2c2ccccc2)c1 (stereo not drawn) : 0
C[C@@H]1C[C@H]1NC(=O)c1cc(NC(=O)c2c(C(F)(F)F)c(C(F)(F)C(F)(F)F)nn2C)ccc1Cl : 40

Inquiry: // fetch Spodoptera frugiperda inhibition at 20 ppm for CN(C(=O)c1c(C(F)(F)F)c(C(F)(F)C(F)(F)F)nn1C)c1ccc(Cl)c(C(=O)NC2(C#N)CC2)c1
Reply text: 100

Inquiry: Value wanted: inhibition at 20 ppm (Spodoptera frugiperda) of entry CN(C(=O)c1c(C(F)(F)F)c(C(F)(F)C(F)(F)F)nn1C)c1ccc(Cl)c(C(=O)NC2CC2)c1 [Ik-132, reference compound]
Reply text: 50

Inquiry: Fill in the recorded inhibition at 20 ppm for this molecule, with Spodoptera frugiperda as test system: Cn1nc(C(F)(F)C(F)(F)F)c(C(F)(F)F)c1C(=O)Nc1ccc(Cl)c(C(=O)NC2CC2)c1
Reply text: 20
